# assayed_system: MDR1 (Human immunodeficiency virus, UniProt P12497)
# test_details: Drug Susceptibility Assay
Yes if EC50 is below 20 nM. No if not; exact matches included in No.

{"columns": ["compound", "class"],
 "data": [
  ["CC[C@H](C)[C@H](NC(C)=O)C(=O)N[C@@H](Cc1ccccc1)[C@H](O)CN(CC(C)C)S(=O)(=O)c1ccc(OC)cc1", "Yes"],
  ["CC(C)CN(C[C@@H](O)[C@H](Cc1ccccc1)NC(=O)O[C@H]1CCOC1)S(=O)(=O)c1ccc(N)cc1", "Yes"],
  ["O=C(N[C@@H](Cc1ccccc1)[C@H](O)CN(CC1CCCCC1)S(=O)(=O)c1ccc2ncsc2c1)c1cccc(O)c1", "No"],
  ["CC[C@H](C)CN(C[C@@H](O)[C@H](Cc1ccccc1)NC(=O)C(NC(C)=O)[C@@H](C)CC)S(=O)(=O)c1ccc2ncsc2c1 (stereo not given in full)", "Yes"]
]}

Data request: A record lists COc1ccc(S(=O)(=O)N(CC2CCCCC2)C[C@@H](O)[C@H](Cc2ccccc2)NC(=O)c2cccc(O)c2)cc1 . Is its EC50 below 20 nM?
Data returned: No

----------
Each entry below carries its reported EC50.
# assayed_system: HIV WT-A pol protein (wild-type clade A) (Human immunodeficiency virus 1, UniProt P12497)
# test_details: Drug Susceptibility Assay
Please state the figure in nM; there is no need to write the unit.

{"columns": ["molecule", "assayed_system", "measure_unit", "EC50"],
 "data": [
  ["COc1ccc(S(=O)(=O)N(CC2CCCCC2)C[C@@H](O)[C@H](Cc2ccccc2)NC(=O)c2cccc(O)c2)cc1", "HIV WT-A pol protein (wild-type clade A) (Human immunodeficiency virus 1, UniProt P12497)", "nM", 38.4],
  ["CC(C)CN(C[C@@H](O)[C@H](Cc1ccccc1)NC(=O)O[C@H]1CCOC1)S(=O)(=O)c1ccc(N)cc1", "HIV WT-A pol protein (wild-type clade A) (Human immunodeficiency virus 1, UniProt P12497)", "nM", 2.6],
  ["CC[C@H](C)[C@H](NC(C)=O)C(=O)N[C@@H](Cc1ccccc1)[C@H](O)CN(CC(C)C)S(=O)(=O)c1ccc(OC)cc1", "HIV WT-A pol protein (wild-type clade A) (Human immunodeficiency virus 1, UniProt P12497)", "nM", 2.4],
  ["O=C(N[C@@H](Cc1ccccc1)[C@H](O)CN(CC1CCCCC1)S(=O)(=O)c1ccc2ncsc2c1)c1cccc(O)c1", "HIV WT-A pol protein (wild-type clade A) (Human immunodeficiency virus 1, UniProt P12497)", "nM", 48.6]
]}

Proceeding to the next molecule to report its EC50.
Data request: Could you tell me which EC50 is on file for CC[C@H](C)CN(C[C@@H](O)[C@H](Cc1ccccc1)NC(=O)C(NC(C)=O)[C@@H](C)CC)S(=O)(=O)c1ccc2ncsc2c1 (stereo not given in full) ?
Data returned: 2.3

----------
# assayed_system: Gag-Pol polyprotein [484-582,I494L,I497V,V499I,D514N,E519D,R541K,D544E,Q553K,N572D,L573M] (Human immunodeficiency virus, UniProt Q9QBY3, D514N/D544E/E519D/I494L/I497V/L573M/N572D/Q553K/R541K/V499I)
# Construct: 484-582
# test_details: Inhibition Assay
Documented Ki across a set of compounds
The response must be a number in pM with no trailing unit.

Data request: Suppose we examine the compound CC[C@H](C)[C@H](NC(C)=O)C(=O)N[C@@H](Cc1ccccc1)[C@H](O)CN(CC(C)C)S(=O)(=O)c1ccc(OC)cc1 ; what Ki value has been reported?
Data returned: 49

----------
# assayed_system: Gag-Pol polyprotein [484-582,I497V,V499I,E519D,G532V,I538V,R541K,D544E,Q553K,V566A,L573M] (Human immunodeficiency virus, UniProt Q9QBY3, D544E/E519D/G532V/I497V/I538V/L573M/Q553K/R541K/V499I/V566A)
# Construct: 484-582
# test_details: Inhibition Assay
quantity_measured: pKi
In textbook form, pKi equals minus log to base ten of the concentration in mol/L.

{"columns": ["molecule", "recorded_measurement"],
 "data": [
  ["COc1ccc(S(=O)(=O)N(CC2CCCCC2)C[C@@H](O)[C@H](Cc2ccccc2)NC(=O)c2cccc(O)c2)cc1", 8.69],
  ["CC[C@H](C)CN(C[C@@H](O)[C@H](Cc1ccccc1)NC(=O)C(NC(C)=O)[C@@H](C)CC)S(=O)(=O)c1ccc2ncsc2c1 (some centres undefined)", 9.42],
  ["CC[C@H](C)CN(C[C@@H](O)[C@H](Cc1ccccc1)NC(=O)c1cccc(O)c1)S(=O)(=O)c1ccc(-c2ccno2)s1", 7.74]
]}

Data request: Fill blank: measured pKi of the molecule O=C(N[C@@H](Cc1ccccc1)[C@H](O)CN(CC1CCCCC1)S(=O)(=O)c1ccc2ncsc2c1)c1cccc(O)c1 is ____.
Data returned: 8.88

----------
# assayed_system: Gag-Pol polyprotein [484-582,I494L,I497V,V499I,E519D,I534V,R541K,D544E,Q553K,A555V,L573M] (Human immunodeficiency virus, UniProt Q9QBY3, A555V/D544E/E519D/I494L/I497V/I534V/L573M/Q553K/R541K/V499I)
# Construct: 484-582
# test_details: Inhibition Assay
Reported log10 Ki by item:
log10 Ki, nM

{"columns": ["molecule", "log10 Ki"],
 "data": [
  ["CC[C@H](C)[C@H](NC(C)=O)C(=O)N[C@@H](Cc1ccccc1)[C@H](O)CN(CC(C)C)S(=O)(=O)c1ccc(OC)cc1", -0.84]
]}

Data request: Give the measured log10 Ki of COc1ccc(S(=O)(=O)N(CCCc2ccccc2)C[C@@H](O)[C@H](Cc2ccccc2)NC(=O)c2cccc(O)c2)cc1 .
Data returned: 0.77

Data request: Fill blank: measured log10 Ki of the molecule COc1ccc(S(=O)(=O)N(CC2CCCCC2)C[C@@H](O)[C@H](Cc2ccccc2)NC(=O)c2cccc(O)c2)cc1 is ____.
Data returned: 0.53

Data request: Quick one: log10 Ki for O=C(N[C@@H](Cc1ccccc1)[C@H](O)CN(CCCc1ccccc1)S(=O)(=O)c1ccc2ncsc2c1)c1cccc(O)c1 ?
Data returned: 0.36

Data request: Query: log10 Ki; subject: CC[C@H](C)CN(C[C@@H](O)[C@H](Cc1ccccc1)NC(=O)c1cccc(O)c1)S(=O)(=O)c1ccc(-c2ccno2)s1
Data returned: 1.48

Data request: Record request: log10 Ki value, item CC[C@H](C)CN(C[C@@H](O)[C@H](Cc1ccccc1)NC(=O)C(NC(C)=O)[C@@H](C)CC)S(=O)(=O)c1ccc2ncsc2c1 (some centres not stated)
Data returned: -1.04

Data request: What does the data say about its log10 Ki? Entry: O=C(N[C@@H](Cc1ccccc1)[C@H](O)CN(CC1CCCCC1)S(=O)(=O)c1ccc2ncsc2c1)c1cccc(O)c1
Data returned: 0.68

----------
# assayed_system: UniProtKB P12497
# test_details: Drug Susceptibility Assay
quantity_measured: pEC50
Expect pEC50 as a plain number equal to -log10 of the molar concentration.

Example cases with answers are listed next.
{"columns": ["molecule", "pEC50"],
 "data": [
  ["O=C(N[C@@H](Cc1ccccc1)[C@H](O)CN(CC1CCCCC1)S(=O)(=O)c1ccc2ncsc2c1)c1cccc(O)c1", 6.78],
  ["CC[C@H](C)[C@H](NC(C)=O)C(=O)N[C@@H](Cc1ccccc1)[C@H](O)CN(CC(C)C)S(=O)(=O)c1ccc(OC)cc1", 7.81]
]}

Data request: # query: pEC50 of entry CC(C)CN(C[C@@H](O)[C@H](Cc1ccccc1)NC(=O)O[C@H]1CCOC1)S(=O)(=O)c1ccc(N)cc1 [VX-478]
Data returned: 7.76

Data request: Recorded pEC50 for COc1ccc(S(=O)(=O)N(CC2CCCCC2)C[C@@H](O)[C@H](Cc2ccccc2)NC(=O)c2cccc(O)c2)cc1 , please?
Data returned: 6.98

Data request: Tell me the measured pEC50 of CC[C@H](C)CN(C[C@@H](O)[C@H](Cc1ccccc1)NC(=O)C(NC(C)=O)[C@@H](C)CC)S(=O)(=O)c1ccc2ncsc2c1 (stereo not given in full) , please.
Data returned: 8.06

----------
# assayed_system: Gag-Pol polyprotein [484-582,I497V,V499I,E519D,G532V,I538V,R541K,D544E,Q553K,V566A,L573M] (Human immunodeficiency virus, UniProt Q9QBY3, D544E/E519D/G532V/I497V/I538V/L573M/Q553K/R541K/V499I/V566A)
# Construct: 484-582
# test_details: Inhibition Assay
Entries and their measured Ki follow.

{"columns": ["molecular_string", "Ki"],
 "data": [
  ["COc1ccc(S(=O)(=O)N(CCCc2ccccc2)C[C@@H](O)[C@H](Cc2ccccc2)NC(=O)c2cccc(O)c2)cc1", "0.0429 µM"],
  ["O=C(N[C@@H](Cc1ccccc1)[C@H](O)CN(CCCc1ccccc1)S(=O)(=O)c1ccc2ncsc2c1)c1cccc(O)c1", "0.0192 µM"]
]}

Now for a further compound.
Data request: Field request: Ki | item: CC[C@H](C)[C@H](NC(C)=O)C(=O)N[C@@H](Cc1ccccc1)[C@H](O)CN(CC(C)C)S(=O)(=O)c1ccc(OC)cc1
Data returned: 0.000819 µM
